Biological target: mouse ELP2 protein (Mus musculus, UniProt Q91WG4)
Sequence (Q91WG4 1-831): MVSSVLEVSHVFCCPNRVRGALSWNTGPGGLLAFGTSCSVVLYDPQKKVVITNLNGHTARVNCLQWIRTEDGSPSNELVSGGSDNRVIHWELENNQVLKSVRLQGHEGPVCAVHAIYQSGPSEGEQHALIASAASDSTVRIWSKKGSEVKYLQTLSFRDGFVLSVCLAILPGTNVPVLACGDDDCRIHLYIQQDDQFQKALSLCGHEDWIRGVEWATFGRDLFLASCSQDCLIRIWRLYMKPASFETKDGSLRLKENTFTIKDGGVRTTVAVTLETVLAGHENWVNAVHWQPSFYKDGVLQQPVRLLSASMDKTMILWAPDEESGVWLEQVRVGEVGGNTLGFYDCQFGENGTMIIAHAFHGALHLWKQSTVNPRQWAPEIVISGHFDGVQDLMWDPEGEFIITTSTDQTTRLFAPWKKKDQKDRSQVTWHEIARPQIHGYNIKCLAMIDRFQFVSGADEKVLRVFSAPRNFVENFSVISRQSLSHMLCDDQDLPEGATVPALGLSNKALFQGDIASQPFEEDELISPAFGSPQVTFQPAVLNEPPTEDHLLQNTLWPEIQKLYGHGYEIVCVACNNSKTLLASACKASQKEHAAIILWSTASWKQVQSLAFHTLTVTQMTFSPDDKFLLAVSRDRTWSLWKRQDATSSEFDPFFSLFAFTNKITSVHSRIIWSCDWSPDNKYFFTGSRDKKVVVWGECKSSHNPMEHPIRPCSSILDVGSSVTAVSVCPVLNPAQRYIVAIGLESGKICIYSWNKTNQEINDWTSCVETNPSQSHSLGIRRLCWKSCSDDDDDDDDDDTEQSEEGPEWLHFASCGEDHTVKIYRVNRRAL
Assay: Surface plasmon resonance (SPR) affinity analysis, compounds fixed on the chip
Type: binding
assay-metric: Kd (µM)
The reply should be a number in µM, with the unit left off.

Form field: Kd recorded for COc1ccc(C(CC(=O)NC(C)C(N)=O)c2oc(C)cc(=O)c2O)cc1 (stereo not shown) with mouse ELP2 protein (Mus musculus, UniProt Q91WG4) (enter value) 3.17

###

Target: UniProt:Q91WG4
Sequence (Q91WG4 1-831): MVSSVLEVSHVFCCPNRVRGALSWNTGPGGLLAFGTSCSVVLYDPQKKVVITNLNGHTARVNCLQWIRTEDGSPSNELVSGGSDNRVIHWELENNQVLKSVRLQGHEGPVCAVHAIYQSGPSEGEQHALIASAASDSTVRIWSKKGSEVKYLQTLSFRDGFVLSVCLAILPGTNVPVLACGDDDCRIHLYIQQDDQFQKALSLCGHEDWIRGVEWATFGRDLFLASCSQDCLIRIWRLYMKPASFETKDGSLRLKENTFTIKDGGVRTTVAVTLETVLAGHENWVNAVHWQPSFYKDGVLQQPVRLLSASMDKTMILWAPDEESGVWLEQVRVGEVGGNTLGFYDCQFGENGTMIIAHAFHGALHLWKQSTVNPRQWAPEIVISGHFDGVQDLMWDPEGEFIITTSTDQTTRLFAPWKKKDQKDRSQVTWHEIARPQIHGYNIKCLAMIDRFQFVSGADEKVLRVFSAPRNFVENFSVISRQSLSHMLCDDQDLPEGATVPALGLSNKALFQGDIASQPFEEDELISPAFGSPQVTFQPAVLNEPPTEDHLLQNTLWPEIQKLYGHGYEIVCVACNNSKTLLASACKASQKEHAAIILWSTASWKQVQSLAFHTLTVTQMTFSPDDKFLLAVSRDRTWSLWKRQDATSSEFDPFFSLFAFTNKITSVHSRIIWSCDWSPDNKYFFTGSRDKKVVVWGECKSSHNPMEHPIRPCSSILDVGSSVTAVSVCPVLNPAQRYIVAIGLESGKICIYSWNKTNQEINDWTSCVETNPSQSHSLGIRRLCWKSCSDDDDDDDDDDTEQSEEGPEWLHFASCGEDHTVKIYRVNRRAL
Experiment: Surface plasmon resonance (SPR) affinity analysis, compounds fixed on the chip
Assay type: binding
Details: SPR, Elp2 protein 200 nM to 3200 nM passed over the immobilized compound; read-out: Avg Kon
Hi, to clarify the labels: Met covers kon from 200 M⁻¹ s⁻¹ upward, Not met covers anything below 200 M⁻¹ s⁻¹.

Exam item: decide whether the reported kon for `Cc1cc(O)cc(=O)n1C[C@@H](O)c1cccc(O)c1` is at least 200 M⁻¹ s⁻¹. Met

Test whether the molecule CC1CCCC2(C)CC3OC(=O)C(CN4CCN(C(=O)c5ccco5)CC4)C3C=C12 (stereo not shown) records kon of 200 M⁻¹ s⁻¹ or higher. Met

Please tell me: is the molecule `O=C1c2ccccc2-c2c1c1ccccc1c(=O)n2NCCO` at or over 200 M⁻¹ s⁻¹ in terms of kon? Not met

Record COc1ccc2c(c1)C(CCn1c(C)cc(O)cc1=O)C(=O)N2 (stereo not shown) ; criterion: kon no lower than 200 M⁻¹ s⁻¹. Met? Not met

Determine whether measured kon meets or exceeds 200 M⁻¹ s⁻¹ for `Cc1cc(=O)c2c(o1)[C@H](c1cccc(O)c1)CC(=O)O2` Not met

Answer whether kon of `COc1cccc(N2Cc3nn(Cc4ccccc4Cl)c(=O)n3C2=O)c1` is greater than or equal to 200 M⁻¹ s⁻¹. Not met

Tell me whether kon is at least 200 M⁻¹ s⁻¹ here: `COc1ccc([C@H](CC(=O)N[C@@H](Cc2ccccc2)C(N)=O)c2oc(C)cc(=O)c2O)cc1` Met

Is it the case that `COCn1ncnc1NCCn1c(C)cc(O)cc1=O` has kon reaching or exceeding 200 M⁻¹ s⁻¹? Not met

Determine whether this molecule has kon no lower than 200 M⁻¹ s⁻¹: `Cc1cc(O)cc(=O)n1C[C@H](O)c1ccc(O)cc1` Met

Exam item: decide whether the reported kon for `COc1cc(CCN)c(-c2csc(-c3ccc(O)cc3)n2)cc1OC` is at least 200 M⁻¹ s⁻¹. Met
